Ref: patent US7999004B2

Target: GAL4-hERβ (Homo sapiens)
Construct: GAL4hERα (or β) LBD chimeric receptors; expressed in transfected cells; host or cells: CHO-K1 (CCRC 60006), transient co-transfection with Fugene 6
Sequence (Q92731 264-498 limits assumed): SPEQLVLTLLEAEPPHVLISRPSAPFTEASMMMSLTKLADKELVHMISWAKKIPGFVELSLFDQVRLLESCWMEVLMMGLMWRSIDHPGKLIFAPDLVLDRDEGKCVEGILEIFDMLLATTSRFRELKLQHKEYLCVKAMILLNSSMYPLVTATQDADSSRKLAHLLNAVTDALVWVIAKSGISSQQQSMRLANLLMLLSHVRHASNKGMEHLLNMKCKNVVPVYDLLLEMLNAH
Experiment: Transactivation assay for estrogen activity, GAL4-hERβ LBD chimeric receptor with (UAS)4-alkaline phosphatase reporter in CHO-K1 cells
Assay type: cell-based
Details: CHO-K1 cells, ALP reporter; value in parentheses; read-out: EC50 value for ERβ (converted)
Entries and their EC50
measured quantity: EC50 (µM)

1) Cc1c(C)c2c(c(C)c1O)CC[C@@](C)(CCC[C@H](C)CCC[C@H](C)CCCC(C)C)O2 [compound 1, RRR-α-tocopherol]	9.2
2) COc1c(O)c(C)c2c(c1OC)O[C@](C)(CC/C=C(\C)CC/C=C(\C)CC/C=C(\C)CC/C=C(\C)CC/C=C(\C)CC/C=C(\C)CC/C=C(\C)CCC=C(C)C)C=C2 [compound 2, hydro-Q9 chromene]	7.4
3) COC1=C(OC)C(=O)C(C/C=C(\C)CC/C=C(\C)CC/C=C(\C)CC/C=C(\C)CC/C=C(\C)CC/C=C(\C)CC/C=C(\C)CC/C=C(\C)CCC=C(C)C)=C(C)C1=O [compound 3, coenzyme Q9]	1.06
4) CC(C)=CCC/C(C)=C/CC/C(C)=C/CC/C(C)=C/CC/C(C)=C/CC/C(C)=C/CC/C(C)=C/CC/C(C)=C/CC[C@]1(C)CCc2cc(O)c(C)c(C)c2O1 [compound 6, γ-tocopherol-9]	3.2

----------
Target: GAL4-hERα (Homo sapiens)
Construct: GAL4hERα (or β) LBD chimeric receptors; expressed in transfected cells; host or cells: CHO-K1 (CCRC 60006), transient co-transfection with Fugene 6
Sequence (P03372 311-547 limits assumed): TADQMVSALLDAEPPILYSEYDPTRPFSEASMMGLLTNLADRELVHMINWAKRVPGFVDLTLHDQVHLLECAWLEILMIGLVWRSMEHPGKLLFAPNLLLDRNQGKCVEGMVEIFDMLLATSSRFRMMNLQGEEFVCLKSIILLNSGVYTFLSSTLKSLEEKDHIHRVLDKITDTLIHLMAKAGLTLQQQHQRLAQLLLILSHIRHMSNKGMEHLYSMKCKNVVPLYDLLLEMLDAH
Assay: Transactivation assay for estrogen activity, GAL4-hERα LBD chimeric receptor with (UAS)4-alkaline phosphatase reporter in CHO-K1 cells
Type: cell-based
Conditions: CHO-K1 cells, ALP reporter; read-out: EC50 value for ERα (converted)
Entries and their EC50
measured quantity: EC50 (µM)

1. Cc1c(C)c2c(c(C)c1O)CC[C@@](C)(CCC[C@H](C)CCC[C@H](C)CCCC(C)C)O2	2.51
2. CC(C)=CCC/C(C)=C/CC/C(C)=C/CC/C(C)=C/CC/C(C)=C/CC/C(C)=C/CC/C(C)=C/CC/C(C)=C/CC[C@]1(C)CCc2cc(O)c(C)c(C)c2O1	12.7
3. COc1c(O)c(C)c2c(c1OC)O[C@](C)(CC/C=C(\C)CC/C=C(\C)CC/C=C(\C)CC/C=C(\C)CC/C=C(\C)CC/C=C(\C)CC/C=C(\C)CCC=C(C)C)C=C2 [compound 2, hydro-Q9 chromene]	10.7
4. COC1=C(OC)C(=O)C(C/C=C(\C)CC/C=C(\C)CC/C=C(\C)CC/C=C(\C)CC/C=C(\C)CC/C=C(\C)CC/C=C(\C)CC/C=C(\C)CCC=C(C)C)=C(C)C1=O	51
